# Emax per entry
# Tested on: muscle progenitors (hMP) from DMD hiPSC or WT hiPSC
# experimentDescription: Myotube assay: myogenic activity (total myotube area per well)
# Assay type: cell-based, human
# experimentalParameters: Homo sapiens, 72 h; myotube assay, compounds incubated 3 days; read-out: MA (normalized Myotube Area, efficacy)
# Method: An in vitro assay for assessing the efficacy of compounds for use in treating, ameliorating, delaying, curing and/or preventing a disease or condition associated with muscle cells and/or satellite cells is described in example 78. Herein, the generation of myotubes and satellite cells after adding a compound to a myotube assay workflow is assessed. Said myotube assay workflow is derived from wild-type or DMD human induced pluripotent stem cells (WT hiPSC or DMD hiPSC). […]
Counter-ions that a name gives are not always drawn.

CC(=O)Nc1cc(Oc2ccc(NC(=O)Nc3cc(C(C)(C)C)nn3-c3ccccc3)c3ccccc23)ccn1    ≥ 75%

The compound listed as "O=C(Nc1ccc(Oc2ccnc3[nH]c(=O)cnc23)cc1F)Nc1cc(C2(C(F)(F)F)CC2)nn1-c1ccccc1" shows Emax equal to 50 to 75%

The compound listed as CSc1cc(Oc2ccnc(NCCN(C)C)c2)ccc1NC(=O)Nc1cc(C(C)(C)C)nn1-c1ccccc1 [(ck), Hydrochloride] shows Emax equal to ≥ 75%

The compound listed as "CNC(=O)c1cncc(Oc2ccc(NC(=O)Nc3cc(C(C)(C)C)nn3-c3ccccc3)c(SC)c2)c1" shows Emax equal to 50 to 75%

###

# Emax per entry
# Tested on: muscle progenitors (hMP) from DMD hiPSC or WT hiPSC
# experimentDescription: Myotube assay: myogenic activity (total myotube area per well)
# Format: cell-based, human
# experimentalParameters: Homo sapiens, 72 h; myotube assay, compounds incubated 3 days; read-out: MA (normalized Myotube Area, efficacy)

Previously resolved entries follow.
CC(C)(C)c1cc(NC(=O)Nc2ccc(Oc3ccnc4[nH]c(=O)cnc34)cn2)n(-c2ccccc2)n1 [(u)]    25 to 50%
CSc1cc(Oc2ccnc3[nH]c(=O)cnc23)ccc1NC(=O)Nc1cc(C(C)(C)C)nn1C1CCCCC1 [(bn)]    50 to 75%

# value of Emax, muscle progenitors (hMP) from DMD hiPSC or WT hiPSC, item CSc1cc(Oc2ncnc3[nH]c(=O)cnc23)ccc1NC(=O)Nc1cc(C(C)(C)C)nn1-c1ccccc1 [(bv)] = ≥ 75%

# value of Emax, muscle progenitors (hMP) from DMD hiPSC or WT hiPSC, item CC(C)(C)c1cc(NC(=O)Nc2ccc(Oc3ccccc3)cc2F)n(-c2ccccc2)n1 [(ac)] = 50 to 75%

###

# System: muscle progenitors (hMP) from DMD hiPSC or WT hiPSC
# experimentDescription: Myotube assay: myogenic activity (total myotube area per well)
# Assay type: cell-based, human
# experimentalParameters: Homo sapiens, 72 h; myotube assay, compounds incubated 3 days; read-out: MA (normalized Myotube Area, efficacy)
measuredEndpoint: Emax

Previously resolved entries follow.
Cc1cc(NC(=O)Nc2ccc(Oc3ccnc4[nH]c(=O)cnc34)cc2F)n(-c2ccccc2)n1    25 to 50%
CC(C)(C)c1cc(NC(=O)Nc2ccc(Oc3ccnc4[nH]c(=O)cnc34)cc2F)n(Cc2ccccc2)n1    50 to 75%

Okay, now this molecule:
The molecule listed as "CSc1cc(Oc2ccnc3c2ncc(=O)n3C)ccc1NC(=O)Nc1cc(C(C)(C)C)nn1-c1ccccc1" shows Emax equal to ≥ 75%

Provenance of the data: patent US20230089368A1
